I'd be grateful if you could share measured glycan array binding signal (z-score) for these entries.
Measured on: Fuc(a1-2)Gal(b1-3)GlcNAc(b1-2)Man(a1-3)[Fuc(a1-2)Gal(b1-3)GlcNAc(b1-2)Man(a1-6)]Man(b1-4)GlcNAc(b1-4)[Fuc(a1-6)]GlcNAc
Method: glycan array binding signal (z-score within array); higher = stronger binding
Measurement conditions: glycan notation: IUPAC condensed, linker removed
Only a selection was taken, and the strongest signals are over-represented in it overall.

Record AT1G15820(NC) (Arabidopsis thaliana) (protein) MAMAVSGAVLSGLGSSFLTGGKRGATALASGVGDAIAPFSFGSLLGTQLLLMGWVESKRWVDFFNPDSQSVEWATPWSKTAENFANYTGDQGYPGGRFFDPLGLAGKNRDGVYEPDFEKLERLKLAEIKHSRLAMVAMLIFYFEAGQGKTPLGALGL , field glycan array binding signal (z-score): 3.01

Record LlpB (Pseudomonas fluorescens) (protein) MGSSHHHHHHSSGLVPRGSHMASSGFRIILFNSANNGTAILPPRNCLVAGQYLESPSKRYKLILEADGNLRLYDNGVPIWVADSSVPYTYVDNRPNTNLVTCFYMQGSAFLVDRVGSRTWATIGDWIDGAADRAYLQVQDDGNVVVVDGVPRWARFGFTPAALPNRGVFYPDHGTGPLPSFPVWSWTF , field glycan array binding signal (z-score): -0.114

Record DC-ASGPR L+GEE (Homo sapiens) (protein) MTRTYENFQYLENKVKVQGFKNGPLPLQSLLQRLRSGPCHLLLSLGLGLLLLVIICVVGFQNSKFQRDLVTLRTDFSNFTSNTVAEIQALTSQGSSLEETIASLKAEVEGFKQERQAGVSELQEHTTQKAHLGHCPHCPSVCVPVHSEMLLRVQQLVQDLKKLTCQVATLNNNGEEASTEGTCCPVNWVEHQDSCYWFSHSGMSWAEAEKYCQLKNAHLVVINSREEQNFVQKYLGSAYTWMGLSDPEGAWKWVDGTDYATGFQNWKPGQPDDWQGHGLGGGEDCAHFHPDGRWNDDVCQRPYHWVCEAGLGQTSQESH , field glycan array binding signal (z-score): -0.314
